Assay: probe aNOTCH2 binding on compound microarray – biochemical, small-molecule microarray, 635/667 nm fluorescence, primary screen (AID 1121);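 also: score merges feature fluorescence read at 667 nm with its signal to noise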
Settings: higher = more signal
// reported composite z-score per item
Returns: the value as a bare number; no unit string appended.

NC(=O)N1C(=O)C2C(C1=O)C1C=C(CCCO)C2C(C2CC2)N1Cc1sc2ccccc2c1Cl (configuration not stated); -0.15
COc1ccc([Si](C)(C)[C@H]2[C@H](CC(=O)N3CCC[C@H]3CO)O[C@@]3(C(=O)N(Cc4ccc(N5CCCCC5=O)cc4)c4ccccc43)[C@@H]2C)cc1; -0.108
COCCCNC(=O)[C@@H]1c2ccccc2C(=O)N(Cc2ccc(OC(F)(F)F)cc2)[C@H]1c1ccc(CO)cc1; -0.174
CN(C)CCCC[C@@H]1NC(=O)[C@@H]2C[C@H](C(=O)NCCCCCCNC(=O)CS)[C@H](c3ccc(O)cc3)N2C1=O; -0.112

## Input For the compound shown here, [N-]=[N+]=Nc1ccccc1C[C@@]1(C(=O)NCc2ccccc2)N=C(c2ccc(OCCCO)cc2)O[C@@H]1c1ccccc1N=[N+]=[N-] , give the reported composite z-score.
## Output -0.0211

## Input Give the measured composite z-score of COCCOC(=O)N1C(=O)[C@@]2(c3ccccc31)[C@H](c1ccc(O)cc1)N1[C@H](c3ccccc3)[C@H](c3ccccc3)OC(=O)[C@H]1[C@@H]2C(=O)N1CCCCCCC1 .
## Output 0.851

## Input Data request, read-out composite z-score, for CCOC(=O)C1=CC[C@@H](c2ccc(OC)cc2)N(S(=O)(=O)c2ccc(C)cc2)[C@H]1c1ccc(C)cc1
## Output -0.084

====

Assay: compounds binding Alexa647 anti-His antibody – biochemical, small-molecule microarray, 635 nm fluorescence, artefact control for SMM control protein annotation, primary screen (AID 1128);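 also: score merges feature fluorescence with signal-to-noise for each printed compound spot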
Details: higher = more signal
measured-metric: composite z-score
Lab note: record just the number, no unit beside it.

CC(C)C(O)C1C=CC2C(=O)NC(=O)C2N1Nc1ccccn1 (stereo not given); 1.25
O=C1C2C=CC(C(O)c3cccs3)N(Nc3ccc([N+](=O)[O-])cc3)C2C(=O)N1c1ccccc1 (stereo not given); 0.482
CO[C@H]1O[C@H](CO)[C@@H](OC(=O)Nc2ccccc2-c2ccccc2)[C@H](OC(=O)Nc2ccccc2)[C@H]1OC(=O)Nc1ccccc1; 1.38
O=C(NCCN1CCOCC1)[C@@H]1c2ccccc2C(=O)N(Cc2ccc(OC(F)(F)F)cc2)[C@H]1c1ccc(CO)cc1; 1.97

Next:
## Input What value of composite z-score has been reported for the following compound? C=CCC(OC(C)=O)[C@@H]1[C@@H](N(Cc2ccc(-c3cccc(C(F)(F)F)c3)o2)C(=O)Cc2ccc(F)cc2)c2cc(OCCCO)ccc2N1C(=O)Cc1ccc2ccccc2c1 (stereo not given in full)
## Output 0.114

====

Experiment: small molecules captured by biotinylated probe aFSTL3 – biochemical, small-molecule microarray, fluorescence 635/667, stem cell growth factor project, primary screen (AID 1064);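 also: measures binding of the biotinylated anti-FSTL3 antibody to printed compounds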
Settings: higher = more signal
Answer not met if composite z-score is under -0.2, and met if it is -0.2 or more.

Some solved entries appear below for comparison.
C=CC[C@@]1(C(=O)N(C)C)N=C(c2ccc(OCCCO)cc2)O[C@@H]1c1ccccc1CN=[N+]=[N-]; met
C[C@@H]1ON(c2ccc(I)cc2)[C@H](c2cccc(NC(=O)OCC3c4ccccc4-c4ccccc43)c2)[C@H]1C(=O)N1C(=O)OC[C@H]1Cc1ccccc1; met

## Input Please indicate if the recorded composite z-score for Cc1ccc(S[C@]2(C(=O)NCc3ccccc3)CC(=O)N(Cc3ccccc3C(F)(F)F)[C@@H]2c2ccc(CO)cc2)cc1 meets or exceeds -0.2.
## Output met

## Input API: above_or_equal(metric=composite z-score, cutoff=-0.2) for item CC(C)C[C@@H]1NC(=O)[C@@H]2C[C@H](C(=O)NCCCCCCNC(=O)CS)[C@H](c3cccc(OCCO)c3)N2C1=O
## Output not met

## Input Is composite z-score for CC(C)[Si](C#CCCc1ccccc1)(O[C@H](c1ccccc1)c1cn(Cc2ccccc2)nn1)C(C)C at or above -0.2?
## Output not met

## Input # bool: composite z-score of C=C(CCCC)/C(=C/C[C@H](OC(=O)c1ccncc1)c1ccccc1OCCO)c1cc(C(=O)OC)ccc1OC >= -0.2
## Output met

## Input Form field: composite z-score at least -0.2? Entry: CCOC(=O)C[C@H]1[C@H](OC(=O)c2cc3ccccc3oc2=O)[C@@H](NC(=O)CC(C)C)c2cc(OCCCO)ccc2N1C(=O)Cc1ccc(OC)cc1
## Output not met

## Input Does the compound COc1ccc([Si](C)(C)[C@@H]2[C@@H](CC(=O)N(CCO)Cc3ccccc3)O[C@]3(C(=O)N(Cc4ccc(N5C(=O)c6cccc7cccc5c67)cc4)c4ccccc43)[C@H]2C)cc1 have recorded composite z-score that is -0.2 or more?
## Output met

## Input I'd appreciate it if you could say whether CC(C)NC(=O)[C@@]1(C)c2ccccc2C(=O)N(Cc2ccccc2)[C@H]1c1ccc(CO)cc1 has composite z-score at least equal to -0.2.
## Output met

## Input Is composite z-score for CC1=C([C@H](O)CCc2ccccc2)[C@H](CO)n2c(=O)n(-c3ccccc3)c(=O)n2C1 at or above -0.2?
## Output not met

## Input Does the reported composite z-score for COC(=O)[C@]1(CCC(=O)OC(C)(C)C)N=C(c2ccc(OCCCO)cc2)O[C@@H]1c1ccccc1N=[N+]=[N-] fall at or above the -0.2 mark?
## Output met

## Input Dear colleague, could you confirm whether CCCCCC1=C2CNC(Cc3ccccc3)(C(=O)OC)C=C2C(C)C1=O (stereo not given) has composite z-score at or above -0.2?
## Output met

## Input Check the entry CCOC(=O)C1=CCC(c2cc3ccccc3[nH]2)N(CCN2CC(C(=O)OCC)=CCC2c2cc3ccccc3[nH]2)C1 (stereo not given) : does composite z-score equal or exceed -0.2?
## Output met

## Input I'd appreciate it if you could say whether CC(C)N1C(=O)c2ccccc2[C@](C)(C(=O)NCC(F)(F)F)[C@@H]1c1ccc(CO)cc1 has composite z-score at least equal to -0.2.
## Output met

## Input Given C=C(C)[C@@H]1CC=C(C(O)C2C=CC3C(=O)N(c4ccccc4)C(=O)C3N2Nc2ccc([N+](=O)[O-])cc2)CC1 (stereo not given in full) , state whether its composite z-score is at least -0.2.
## Output not met
